molecular target: Ubiquitin carboxyl-terminal hydrolase 2 (Homo sapiens); test: Confirmation Assay for Inhibitors of Ubiquitin-specific Protease USP2a Using CHOP2 as the Reporter; details: USP2 core, Ub-CHOP2 coupled reporter fluorescence; series mostly up to 38.3 µM; note: nearly all actives have a fitted effect of over 55% in size
Results filed as inconclusive are left out. The source made the active and inactive calls. Calls come from the whole dose curve; as a rule, active = well fitted inhibition curve with a large enough effect; inconclusive = small, poorly fitted or top-dose-only effect, or effect the other way; inactive = flat fitted curve, though single readings scatter.
Thanks in advance; please answer with one of these: YES for active, NO for inactive

Q: # lookup: test call for `C#CCOCCOCCOCCNc1nc(N2CCN(C(=O)CCCCCCCCCCNC(=O)Cn3cc(CCCCCN)nn3)CC2)nc(N2CCN(C(=O)CCCCCCCCCCNC(=O)Cn3cc(CCCCCN)nn3)CC2)n1`
Result: YES

Q: Record request — test call for `C[C@H](CO)N1C[C@H](C)[C@@H](CN(C)S(=O)(=O)c2cn(C)cn2)Oc2ccc(NC(=O)Cn3cnnn3)cc2C1=O`
Result: NO

Q: For `Cc1cc(NC(=O)c2cccc(S(=O)(=O)N(C)C)c2)n(-c2ccccn2)n1` , which call appears in the assay record?
Result: NO

Q: // return assay outcome for `CCOC(=O)Nc1nnc(CCc2ccccc2)s1`
Result: NO

Q: Status in this test for `COC(=O)CSc1nc2c(c(-c3ccco3)c1C#N)CCCC2` ?
Result: NO

Q: Which outcome did this test record for the compound `COCCNCC(=O)N1CCCCCC1` ?
Result: NO

Q: // outcome(item) with item = `O=C(CCc1nc(-c2ccccc2F)no1)NC1CCCCCC1`
Result: NO

Q: Please indicate how the test categorized `O=C(O)c1cccc(-n2cccc2/C=C2/NC(=O)N(c3ccc(Cl)cc3)C2=O)c1` .
Result: YES

Q: Could you please tell me the result logged for `C=CC[C@@H](CC(=O)N(CCO)Cc1ccccc1)C(=O)NCCOC(=O)[C@H](CC=C)CC(=O)OC(C)(C)C` in this assay?
Result: NO

Q: Hi, sorry to bother you, what did the test record for `Cn1c(C(=O)NCCCN2CCN(c3ccccc3F)CC2)cc2c(=O)n(C)c3ccccc3c21` ?
Result: NO

Q: Short answer needed: outcome of this test for `CS(=O)(=O)c1ccc(C(=O)Nc2nc(-c3ccco3)c(-c3ccco3)s2)cc1` ?
Result: NO

Q: Hello, I am checking results. What call was entered for `CC(=O)Nc1ccc(Nc2cc(C)nc(Nc3ccc(NC(C)=O)cc3)n2)cc1` ?
Result: NO

Q: Assay outcome for `COC(=O)c1ccc(CSc2ncnc3ccccc23)o1` : what was it?
Result: NO

Q: Please indicate how the test categorized `Cc1ccc(C(=O)NCc2ccc3c(c2)OCO3)cc1N1CCCC1=O` .
Result: NO

Q: Dear all, I need the recorded test outcome for `Cc1ccccc1NC(=O)CSc1nnc(-c2ccco2)c(-c2ccco2)n1` , thank you.
Result: NO

Q: Just curious, what result did `CN(CC(=O)Nc1cccc2ccccc12)C(=O)c1ccc(NC(=O)CC#N)cc1` get here?
Result: NO

Q: I'd appreciate the recorded outcome for `COC(=O)c1[nH]c(=O)c2ccccc2c1OCc1ccccc1` from this test.
Result: NO

Q: State the result this test recorded for Cc1cc(NC(=O)CN2C(=O)NC3(CCCCC3C)C2=O)no1 (configuration not stated) .
Result: NO

Q: Entry `CN1CCN(CCCCOc2ccc(F)cc2)CC1` : call = ?
Result: NO

Q: // param item: `COc1cc(OC)cc(-c2c(C#Cc3ccsc3)c3cc(-c4ccc(OC)c(OC)c4)ccc3n2C)c1` ; yields the recorded call
Result: NO

Q: Tell me the assay call for `COc1ccc(CC(=O)c2ccccc2C(=O)O)cc1` please.
Result: NO

Q: Status in this test for `O=C(N/N=C/c1ccc(-c2ccc(S(=O)(=O)Nc3ncccn3)cc2)o1)c1cc2ccccc2cc1O` ?
Result: YES
